tested on: RXRa DBDmut IVT, anti-RXR (DBD mutation: RXRa K156A/R161A, NR concentration 90 nM); experiment: PBM binding z-score (relative to random genomic background probes); higher = stronger binding; sequences stand for … in GC…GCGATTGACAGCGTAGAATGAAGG
Categorized via PBM binding z-score: interval 1: < 0.7; interval 2: ≥ 0.7 and < 2; interval 3: ≥ 2

Into which category would you place `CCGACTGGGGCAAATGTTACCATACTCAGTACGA` ?
interval 1

Could you tell me which band `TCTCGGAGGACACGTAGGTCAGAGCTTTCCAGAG` belongs to?
interval 1

Dear colleague, I would appreciate it if you could identify the bin for `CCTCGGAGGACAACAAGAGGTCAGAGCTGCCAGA` and reply at your convenience.
interval 2

State the band of `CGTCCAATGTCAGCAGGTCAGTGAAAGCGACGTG`
interval 1

Each sequence maps to one class by PBM binding z-score. Which class for `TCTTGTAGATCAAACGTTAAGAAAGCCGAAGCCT` ?
interval 2

Form field 'band' for `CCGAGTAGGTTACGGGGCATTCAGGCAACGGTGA`
interval 1

Which class is correct for the following sequence? `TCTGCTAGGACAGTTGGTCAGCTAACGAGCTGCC`
interval 1

Form: Item = `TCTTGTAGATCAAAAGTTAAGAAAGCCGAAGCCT` ; Class = ?
interval 2

Hi there! Could you help me figure out the category for `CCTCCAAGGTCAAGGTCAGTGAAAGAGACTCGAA` please?
interval 3

Quick check: band for `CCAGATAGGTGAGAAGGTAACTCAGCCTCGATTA`
interval 1

Sort `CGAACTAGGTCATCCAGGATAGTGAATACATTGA` into one of the categories.
interval 3

Please report the category associated with `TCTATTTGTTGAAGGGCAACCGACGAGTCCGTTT` , nothing else.
interval 2

Bin? `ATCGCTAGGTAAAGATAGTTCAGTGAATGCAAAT`
interval 1

Hey, which category is `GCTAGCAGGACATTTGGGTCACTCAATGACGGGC` in, do you know?
interval 2

Note: place this sequence into its band. Item: `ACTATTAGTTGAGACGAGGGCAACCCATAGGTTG`
interval 1

State the band of `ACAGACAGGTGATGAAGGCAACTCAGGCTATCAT`
interval 1

Returns: class label. Input: `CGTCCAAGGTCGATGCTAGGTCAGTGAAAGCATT`
interval 2

Sort `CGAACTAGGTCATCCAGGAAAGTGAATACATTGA` into one of the categories.
interval 3

Record `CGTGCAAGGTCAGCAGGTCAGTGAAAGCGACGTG` — which class?
interval 3

Class label required: `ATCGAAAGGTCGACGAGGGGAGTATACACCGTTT`
interval 2

For this sequence, which bin applies? `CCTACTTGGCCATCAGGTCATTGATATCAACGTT`
interval 2

Which PBM binding z-score category applies to `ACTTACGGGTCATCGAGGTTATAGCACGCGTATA` here?
interval 3

// return the class label for `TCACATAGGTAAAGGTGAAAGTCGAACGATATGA`
interval 2

Using the reported PBM binding z-score, which band applies to `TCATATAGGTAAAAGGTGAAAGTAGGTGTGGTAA` ?
interval 3

Form field 'band' for `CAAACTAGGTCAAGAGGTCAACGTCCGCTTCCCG`
interval 3

---

tested on: PPARg homodimer (NR concentration 180 nM); experiment: PBM binding z-score (relative to random genomic background probes); higher = stronger binding; sequences stand for … in GC…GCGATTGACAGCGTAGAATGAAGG
Please enter MET where PBM binding z-score is greater than or equal to 0.9, and NOT MET where it is lower.

Decide: is the reported value of PBM binding z-score for `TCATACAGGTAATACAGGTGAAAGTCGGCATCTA` equal to or greater than 0.9?
MET

In plain terms: is recorded PBM binding z-score at least 0.9 for `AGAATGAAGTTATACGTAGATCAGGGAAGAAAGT` ?
NOT MET

Record `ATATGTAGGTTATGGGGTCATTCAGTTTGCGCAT` ; criterion: PBM binding z-score no lower than 0.9. Met?
MET

Identify whether the reported PBM binding z-score of the following sequence is 0.9 or greater: `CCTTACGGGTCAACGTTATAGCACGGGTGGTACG`
MET

Please tell me: is the sequence `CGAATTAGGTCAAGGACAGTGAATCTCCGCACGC` at or over 0.9 in terms of PBM binding z-score?
MET

Could you tell me if the measured PBM binding z-score of `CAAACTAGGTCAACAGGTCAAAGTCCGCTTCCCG` reaches 0.9 or more?
MET

Does the sequence `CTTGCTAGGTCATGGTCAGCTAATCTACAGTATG` have recorded PBM binding z-score that is 0.9 or more?
MET

In plain terms: is recorded PBM binding z-score at least 0.9 for `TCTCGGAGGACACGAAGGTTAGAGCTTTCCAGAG` ?
NOT MET

In plain terms: is recorded PBM binding z-score at least 0.9 for `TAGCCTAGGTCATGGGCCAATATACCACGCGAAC` ?
MET

Has `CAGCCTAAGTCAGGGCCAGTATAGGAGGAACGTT` a recorded PBM binding z-score greater than or equal to 0.9?
NOT MET

Determine whether measured PBM binding z-score meets or exceeds 0.9 for `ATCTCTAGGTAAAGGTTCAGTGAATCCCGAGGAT`
NOT MET

Item `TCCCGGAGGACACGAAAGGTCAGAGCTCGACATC` with PBM binding z-score of 0.9 or above?
MET

Assess whether reported PBM binding z-score for `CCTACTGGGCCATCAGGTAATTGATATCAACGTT` sits at 0.9 or higher.
NOT MET

// inclusive: PBM binding z-score at least 0.9? input: `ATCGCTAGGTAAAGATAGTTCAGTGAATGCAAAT`
NOT MET

In plain terms: is recorded PBM binding z-score at least 0.9 for `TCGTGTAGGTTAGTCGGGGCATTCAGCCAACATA` ?
NOT MET

Hi team, for `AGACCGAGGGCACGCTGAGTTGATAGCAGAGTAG` , is the recorded PBM binding z-score at or above 0.9?
NOT MET

Does PBM binding z-score meet or surpass 0.9 for `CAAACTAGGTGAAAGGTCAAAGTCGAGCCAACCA` ?
MET

Assess whether reported PBM binding z-score for `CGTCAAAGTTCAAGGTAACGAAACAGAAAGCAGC` sits at 0.9 or higher.
MET

Confirm if PBM binding z-score reported for the sequence `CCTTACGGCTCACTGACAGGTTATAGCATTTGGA` is 0.9 or above.
NOT MET

Reported PBM binding z-score reaches at least 0.9 for `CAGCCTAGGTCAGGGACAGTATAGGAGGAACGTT` ?
NOT MET

Record `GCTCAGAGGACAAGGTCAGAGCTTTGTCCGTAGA` ; criterion: PBM binding z-score no lower than 0.9. Met?
NOT MET

Is it the case that `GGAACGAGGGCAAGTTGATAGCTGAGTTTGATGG` has PBM binding z-score reaching or exceeding 0.9?
NOT MET

Has `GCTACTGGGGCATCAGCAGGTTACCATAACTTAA` a recorded PBM binding z-score greater than or equal to 0.9?
NOT MET

Is the recorded value of PBM binding z-score equal to or greater than 0.9 for this sequence? `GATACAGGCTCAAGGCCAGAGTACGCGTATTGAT`
NOT MET

Reported PBM binding z-score reaches at least 0.9 for `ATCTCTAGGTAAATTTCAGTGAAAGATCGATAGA` ?
NOT MET

Does `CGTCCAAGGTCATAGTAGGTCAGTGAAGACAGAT` have a reported PBM binding z-score of at least 0.9?
MET

Decide: PBM binding z-score of `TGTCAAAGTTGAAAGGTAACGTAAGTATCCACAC` >= 0.9?
NOT MET

Hi, just wondering whether `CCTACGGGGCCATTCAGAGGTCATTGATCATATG` shows PBM binding z-score of 0.9 or higher.
MET

Has `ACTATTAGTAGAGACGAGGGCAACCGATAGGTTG` a recorded PBM binding z-score greater than or equal to 0.9?
NOT MET

Would you say `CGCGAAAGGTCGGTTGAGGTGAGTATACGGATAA` shows PBM binding z-score at minimum 0.9?
MET

Could you tell me if the measured PBM binding z-score of `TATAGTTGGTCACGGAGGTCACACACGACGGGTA` reaches 0.9 or more?
MET

Dear colleague, could you confirm whether `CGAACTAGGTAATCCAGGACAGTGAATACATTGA` has PBM binding z-score at or above 0.9?
NOT MET

Hello, I need to know if `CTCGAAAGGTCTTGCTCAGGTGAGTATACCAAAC` has measured PBM binding z-score not below 0.9. Thanks!
NOT MET

Check if PBM binding z-score >= 0.9 (inclusive). Item: `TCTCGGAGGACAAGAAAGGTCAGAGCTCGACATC`
MET

Textbook exercise: given the entry `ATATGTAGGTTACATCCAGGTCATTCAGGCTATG` , state whether its PBM binding z-score is greater than or equal to 0.9.
MET

Say whether `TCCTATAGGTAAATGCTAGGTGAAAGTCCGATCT` shows PBM binding z-score of 0.9 or more.
NOT MET

Please indicate if the recorded PBM binding z-score for `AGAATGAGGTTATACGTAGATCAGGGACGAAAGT` meets or exceeds 0.9.
NOT MET

API: above_or_equal(metric=PBM binding z-score, cutoff=0.9) for item `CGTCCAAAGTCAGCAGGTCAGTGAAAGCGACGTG`
MET

Could you tell me if the measured PBM binding z-score of `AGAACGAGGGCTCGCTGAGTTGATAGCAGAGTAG` reaches 0.9 or more?
NOT MET

Please tell me: is the sequence `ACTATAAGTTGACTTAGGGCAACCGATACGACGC` at or over 0.9 in terms of PBM binding z-score?
NOT MET

Evaluate `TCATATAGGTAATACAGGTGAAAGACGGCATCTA` : PBM binding z-score at minimum 0.9?
MET

Check if PBM binding z-score >= 0.9 (inclusive). Item: `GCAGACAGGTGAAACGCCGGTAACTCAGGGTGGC`
NOT MET

Assess whether reported PBM binding z-score for `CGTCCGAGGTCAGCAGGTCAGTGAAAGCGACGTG` sits at 0.9 or higher.
MET

API: above_or_equal(metric=PBM binding z-score, cutoff=0.9) for item `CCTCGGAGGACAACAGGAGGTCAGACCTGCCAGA`
MET

Hi, just wondering whether `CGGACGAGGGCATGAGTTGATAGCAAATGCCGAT` shows PBM binding z-score of 0.9 or higher.
NOT MET

Check if PBM binding z-score >= 0.9 (inclusive). Item: `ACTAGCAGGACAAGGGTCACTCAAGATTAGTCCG`
MET

Test whether the sequence `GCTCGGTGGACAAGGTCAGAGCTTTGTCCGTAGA` records PBM binding z-score of 0.9 or higher.
NOT MET

Tell me whether PBM binding z-score is at least 0.9 here: `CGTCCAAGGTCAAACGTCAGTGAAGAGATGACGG`
MET

Quick check, PBM binding z-score >= 0.9? `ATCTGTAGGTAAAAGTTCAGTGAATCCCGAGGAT`
MET

Does `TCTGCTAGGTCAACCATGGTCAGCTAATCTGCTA` have a reported PBM binding z-score of at least 0.9?
MET
